Assay: qHTS of pediatric cancer cell lines to identify multiple opportunities for drug repurposing: Primary screen for SJ-GBM2 cells (AID 1347091); also: potency is read from the fitted curve at half-maximal effect
Conditions: SJ-GBM2 viability, CellTiter-Glo luminescence, 48 h; series mostly up to 46 µM
Results filed as inconclusive are left out. Active and inactive are the calls of the source. Calls follow the shape of the dose curve; as a rule, active = well fitted cell-killing curve with a large enough effect; inconclusive = small, poorly fitted or top-dose-only effect; inactive = no such curve, though single readings can be large or run the other way.
endpoint.name: Potency

{"compound": "CC(C)N[C@@H]1CCn2c(=O)[nH]c3cccc(c32)[C@@H]1O", "Potency": "6.62 µM (active)"}
{"compound": "CCOC(=O)c1cncn1[C@H](C)c1ccccc1", "Potency": "inactive"}
{"compound": "C[C@]12CC[C@@H]3[C@@H](CCC4=CC(=O)CC[C@@H]43)[C@@H]1CC[C@@H]2OC(=O)CCc1ccccc1", "Potency": "inactive"}
{"compound": "C[C@@H]1CC[C@H]2[C@@H](C)C(=O)O[C@@H]3O[C@@]4(C)CC[C@H]1[C@]32OO4", "Potency": "inactive"}
{"compound": "C#CC1(O)CCC2C3CCC4=CC(=O)CCC4(C)C3CCC21C (configuration not stated)", "Potency": "inactive"}

For each entry beneath this line, provide reported Potency.
1. C[C@H]([C@H](O)CCC(C)(C)O)[C@H]1CC[C@@]2(O)C3=CC(=O)[C@@H]4C[C@@H](O)[C@@H](O)C[C@]4(C)[C@@H]3CC[C@]12C
2. Cc1c(N)nc([C@H](CC(N)=O)NC[C@@H](N)C(N)=O)nc1C(=O)N[C@H](C(=O)N[C@@H](C)[C@H](O)[C@@H](C)C(=O)N[C@@H](C(=O)NCCc1nc(-c2nc(C(=O)NCCC[S+](C)C)cs2)cs1)[C@@H](C)O)C(O[C@H]1O[C@H](CO)[C@H](O)[C@@H](O)[C@@H]1O[C@H]1O[C@H](CO)[C@@H](O)[C@H](OC(N)=O)[C@H]1O)c1cnc[nH]1 (some centres not stated)

Out:
inactive
1.48 µM (active)

These data points were gathered from PubChem BioAssay (NCATS).
